Hello, the source for this data is patent US20110190309A1, in case you need it.

Entries annotated with measured IC50
- tested on: human muscarinic receptors (M3) (Homo sapiens, UniProt P20309)
- Construct: purchased
- Sequence (P20309 whole entry): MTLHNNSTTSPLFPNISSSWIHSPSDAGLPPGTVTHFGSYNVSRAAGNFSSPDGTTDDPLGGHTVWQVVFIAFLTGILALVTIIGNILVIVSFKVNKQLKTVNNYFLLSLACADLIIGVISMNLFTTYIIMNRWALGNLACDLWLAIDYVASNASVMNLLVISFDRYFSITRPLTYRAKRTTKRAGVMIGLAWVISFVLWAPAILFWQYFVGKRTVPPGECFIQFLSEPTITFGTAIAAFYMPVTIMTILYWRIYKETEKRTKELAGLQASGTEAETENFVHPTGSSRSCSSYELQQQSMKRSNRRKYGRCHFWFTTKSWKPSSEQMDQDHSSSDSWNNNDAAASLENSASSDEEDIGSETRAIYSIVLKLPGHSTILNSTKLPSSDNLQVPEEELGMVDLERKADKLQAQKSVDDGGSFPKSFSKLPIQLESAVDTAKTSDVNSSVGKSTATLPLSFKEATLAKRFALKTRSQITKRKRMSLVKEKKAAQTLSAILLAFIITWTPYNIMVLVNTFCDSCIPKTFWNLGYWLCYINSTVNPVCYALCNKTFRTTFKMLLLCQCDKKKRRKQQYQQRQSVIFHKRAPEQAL
- assay summary: Muscarinic Receptor Radioligand Binding Assay ([3H]-NMS)
- condition notes: human M3 membranes, class symbols of M3 Binding IC50, read-out: M3 pIC50 (converted)

Problem: Using the record for O=C(C[N+]12CCC(CC1)[C@@H](OC(=O)C1(c3ccccc3)CCCCCC1)C2)Nc1cccnn1 [Example 13] , report its IC50.
Solution: < 2 nM

Problem: Consider the compound O=C(C[N+]12CCC(CC1)[C@@H](OC(=O)C1(c3cccc(F)c3)CCCCCC1)C2)Nc1ccon1 [Example 9] and give its measured IC50.
Solution: < 2 nM

Continuing:
Problem: Which IC50 value belongs to O=C(C[N+]12CCC(CC1)[C@@H](OC(=O)C1(c3ccccc3)CCCCCC1)C2)Nc1cccnc1 [Example 12] ?
Solution: < 2 nM

---

Measured GVS weight increase of individual entries
- assay summary: Gravimetric Vapour Sorption (GVS)
- Type: physicochemical
- condition notes: at 80% RH
Kindly answer with a numeric value in % w/w, unit omitted.

Problem: # input compound: O=C(C[N+]12CCC(CC1)[C@@H](OC(=O)C1(c3ccccc3)CCCCCC1)C2)Nc1cnccn1.[Br-] [Example 1] ; wanted: its GVS weight increase
Solution: 3

Problem: Name the reported GVS weight increase value associated with the compound O=C(C[N+]12CCC(CC1)[C@@H](OC(=O)C1(c3ccccc3)CCCCCC1)C2)Nc1cnccn1 [Example 7]
Solution: 1.6

Problem: Sample O=C(C[N+]12CCC(CC1)[C@@H](OC(=O)C1(c3ccccc3)CCCCCC1)C2)Nc1ccccn1 [Example 14] — what was its GVS weight increase?
Solution: 1

New cases:
Problem: Please look up its GVS weight increase: O=C(C[N+]12CCC(CC1)[C@@H](OC(=O)C1(c3ccccc3)CCCCCC1)C2)Nc1cnccn1.[Cl-] [Example 2]
Solution: 9

---

- assay summary: Gravimetric Vapour Sorption (GVS)
- Format: physicochemical
- condition notes: at 80% RH
readout kind: GVS weight increase

Problem: Give its GVS weight increase value. Item: O=C(C[N+]12CCC(CC1)[C@@H](OC(=O)C1(c3ccccc3)CCCCCC1)C2)Nc1cnccn1 [Example 5]
Solution: ~0.3 % w/w

Problem: Consider the molecule `O=C(C[N+]12CCC(CC1)[C@@H](OC(=O)C1(c3ccccc3)CCCCCC1)C2)Nc1ccccn1.[Br-]` and give its measured GVS weight increase.
Solution: negligible

Problem: Which measured GVS weight increase value corresponds to O=C(C[N+]12CCC(CC1)[C@@H](OC(=O)C1(c3ccccc3)CCCCCC1)C2)Nc1cnccn1 [Example 6] ?
Solution: ~0.2 % w/w

Problem: So what does the record say about GVS weight increase for `O=C(C[N+]12CCC(CC1)[C@@H](OC(=O)C1(c3ccccc3)CCCCCC1)C2)Nc1ccccn1.[Cl-]` ?
Solution: negligible
